Documented speed of sound across a set of molecules
# assay_context: 290.65 K; 101.33 kPa; Liquid; Pulse-echo method
measured_endpoint: speed of sound (m/s)

INSERT INTO measurements (molecule, measured_endpoint, units_label, numeric_value) VALUES
  ('CCCCC(=O)[O-].C[NH2+]CCO [2-hydroxy-N-methylethanaminium pentanoate]', 'speed of sound', 'm/s', 1572.9),
  ('C[NH2+]CCO.O=C[O-] [2-hydroxy-N-methylethanaminium formate]', 'speed of sound', 'm/s', 1830),
  ('CCCC(=O)[O-].C[NH2+]CCO [N-methyl-2-hydroxyethylammonium butanoate]', 'speed of sound', 'm/s', 1638.9),
  ('CCC(=O)[O-].C[NH2+]CCO [2-hydroxy-N-methylethanaminium propionate]', 'speed of sound', 'm/s', 1712.4),
  ('CC(C)C(=O)[O-].C[NH2+]CCO [2-hydroxy-N-methylethanaminium isobutyrate]', 'speed of sound', 'm/s', 1632.7);
